Target: KRAS G12D (Homo sapiens, UniProt P01116+P62937, G12D)
Sequence (P01116 1-169 isoform P01116-2 G12D limits assumed): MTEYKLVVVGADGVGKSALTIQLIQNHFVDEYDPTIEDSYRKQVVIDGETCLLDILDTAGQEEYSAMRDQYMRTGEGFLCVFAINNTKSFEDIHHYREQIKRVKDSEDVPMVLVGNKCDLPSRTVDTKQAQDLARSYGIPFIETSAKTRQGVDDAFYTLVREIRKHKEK
Sequence (P62937 whole entry): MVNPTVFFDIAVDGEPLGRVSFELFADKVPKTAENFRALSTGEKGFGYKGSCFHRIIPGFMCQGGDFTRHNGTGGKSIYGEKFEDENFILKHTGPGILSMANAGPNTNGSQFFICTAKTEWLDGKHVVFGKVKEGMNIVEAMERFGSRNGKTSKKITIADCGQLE
Experiment: Ras-Raf disruption / FRET / MOA assay (BRAF RBD)
Assay type: biochemical
Conditions: Ras-Raf disruption, with Cyclophilin A; read-out: KRAS G12D FRET data IC50
Let's look at some compounds and their measured IC50.

A selection of reference data follows.
CCn1c(-c2cccnc2[C@H](C)OC)c2c3cc(ccc31)-c1cccc(c1)C[C@H](NC(=O)[C@H](C(C)C)N(C)C(=O)CCN=C=NCc1ccccc1OC)C(=O)N1CCC[C@H](N1)C(=O)OCC(C)(C)C2 [Example 73] : 100 to 1000 nM
CCn1c(-c2cccnc2[C@H](C)OC)c2c3cc(ccc31)-c1cc(O)cc(c1)C[C@H](NC(=O)[C@H](C(C)C)N(C)C(=O)CN(C)C(=O)[C@H]1C[C@@H]3N[C@@H]3C1)C(=O)N1CCC[C@H](N1)C(=O)OCC(C)(C)C2 (atropisomer, axis not shown) [Example 285] : 10 to 100 nM
CCn1c(-c2cccnc2[C@H](C)OC)c2c3cc(ccc31)-c1cccc(c1)C[C@H](NC(=O)[C@H](C(C)C)N(C)C(=O)CCN=C=NCCOC)C(=O)N1CCC[C@H](N1)C(=O)OCC(C)(C)C2 [Example 74] : 100 to 1000 nM

// next item, IC50 requested
Input: Requested field: IC50. Item: CCn1c(-c2cccnc2[C@H](C)OC)c2c3cc(ccc31)-c1cc(O)cc(c1)C[C@H](NC(=O)[C@H](C(C)C)N(C)C(=O)N1CCN(C(=O)[C@H]3CN3)CC1=O)C(=O)N1CCC[C@H](N1)C(=O)OCC(C)(C)C2 (atropisomer, axis not shown) [Example 183]
Output: 1000 to 10000 nM

====

Target: KRAS G12S (Homo sapiens, UniProt P01116+P62937, G12S)
Sequence (P01116 1-169 isoform P01116-2 G12S limits assumed): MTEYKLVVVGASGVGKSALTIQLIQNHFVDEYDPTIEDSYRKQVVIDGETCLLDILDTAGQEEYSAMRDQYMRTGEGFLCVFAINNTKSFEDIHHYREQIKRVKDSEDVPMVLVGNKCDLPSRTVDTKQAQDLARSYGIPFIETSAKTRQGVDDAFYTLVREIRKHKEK
Sequence (P62937 whole entry): as the sequence (P62937 whole entry) above
Test: Disruption of BRAF RBD interaction with Ras (FRET / MOA assay, with Cyclophilin A)
Format: biochemical
Conditions: read-out: KRAS G12S FRET data, IC50
pIC50: −log10 of the molar value.
// values below are reported pIC50

Consider the following illustrative entries.
CCn1c(-c2cccnc2[C@H](C)OC)c2c3cc(ccc31)-c1cc(O)cc(c1)C[C@H](NC(=O)[C@H](C(C)C)N(C)C(=O)[C@H]1CCN(CCO)C1)C(=O)N1CCC[C@H](N1)C(=O)OCC(C)(C)C2 : 7.00 to 8.00
CCn1c(-c2cccnc2[C@H](C)OC)c2c3cc(ccc31)-c1csc(n1)C[C@H](NC(=O)[C@H](C(C)C)N(C)C(=O)N1CCN(C(=O)[C@H]3CCCN3C)CC1)C(=O)N1CCC[C@H](N1)C(=O)OCC(C)(C)C2 (atropisomer, axis not shown) : 6.00 to 7.00
CCn1c(-c2cccnc2[C@H](C)OC)c2c3cc(ccc31)-c1cc(O)cc(c1)C[C@H](NC(=O)[C@@H](NC(C)=O)C(C)(C)OC)C(=O)N1CCC[C@H](N1)C(=O)OCC(C)(C)C2 (racemic) : < 5.00

Attention now turns to another entry.
Input: If you can, please state the reported pIC50 value of CCn1c(-c2cccnc2[C@H](C)OC)c2c3cc(ccc31)-c1csc(n1)C[C@H](NC(=O)[C@H](C(C)C)N(C)C(=O)[C@@H]1C[C@@H]1C)C(=O)N1CCC[C@H](N1)C(=O)OCC(C)(C)C2 .
Output: 5.00 to 6.00

Data origin: patent US20230233569A1
